Target: T1, Ovr110 (amino acids 1-282; Ovr110 Construct 1 without the 6-His tag) expressed on transiently transfected … (human, UniProt Q7Z7D3 25-282)
T1 construct: signal peptide not removed here
T1 sequence: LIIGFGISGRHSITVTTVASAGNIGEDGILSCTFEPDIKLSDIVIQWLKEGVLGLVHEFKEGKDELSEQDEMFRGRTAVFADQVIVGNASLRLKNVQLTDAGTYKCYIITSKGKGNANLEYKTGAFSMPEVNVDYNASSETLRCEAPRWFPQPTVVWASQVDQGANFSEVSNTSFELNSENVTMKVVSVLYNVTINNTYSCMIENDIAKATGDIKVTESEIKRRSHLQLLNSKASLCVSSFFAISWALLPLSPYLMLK
Test: flow cytometry; purified MAb; Ovr110-transfected 293F cells
propertyName: % Cells Positive (%)

binder	propertyName	unitsSymbol	recordedMeasurement
Ovr110.Q23 (antibody, IgG1, V domains shown, Mouse hybridoma MAb; also called Q23.6) VH: QVQLQQSGAELMKPGASVKISCKATGYTFSSYWIEWVKQRPGHGLEWIGEILPGSGITKYNEKFKTKATFTADTSSNTAYMQLSSLTSEDSAVYYCARYYFGSVNFYFDCWGQGTTLTVSS VL: QAVVTQESALTTSPGETVTLTCRSSTGAVTTSNYANWVQEKPDHLFTGLIGGTDNRPPGVPARFSGSLIGDKAALTITGTQTEDEAIYFCALWYSNHWVFGGGTKLTVLG	% Cells Positive	%	92.6
Ovr110.Q12 (antibody, IgG1, V domains shown, Mouse hybridoma MAb; also called Q12.2; Ovr110.Q12.2) VH: QVQLQQPGAELVKPGATVKLSCKTSGYTFTSYWMHWVKQRPGQGLEWIGEIDPSDSYTNYNQKFKGKATLTVDTSSTTAYMQLSSLTSEDSAVYYCAREYGNNDAMDYWGQGTSVTVSS VL: QIVLTQSPAIMSASPGEKVTMTCSASSGISYMHWYQQKPGTTPKRWIYDASKLASGVPSRFSGSGSGTSYSLTISSMEAEDAATYYCHQRRSYPFTFGSGTKLEIKR	% Cells Positive	%	94.3
